# run.description: Population PK analysis of bortezomib in pediatric ALL/AML patients
# Format: in vivo, human
# run.parameters: human, plasma, intravenous, 1.3 mg/m^2, half-life, α disposition phase, geometric mean (%CV), all patients (N = 104)
readout.label: half-life (min)
Report the value in min with no unit label.

What value of measured half-life is listed for CC(C)C[C@H](NC(=O)[C@H](Cc1ccccc1)NC(=O)c1cnccn1)B(O)O ?
6.15
